Test: soluble on expression in E. coli; label from the status in PepcDB or PDB records
MEASURED PARAMETER: soluble on expression in E. coli

• MKIINLQFPNKYSAKKKEFVLAMGYFDGLHLGHRAVIQQAKRIADKQHLKLALLTYSQSPAGFYVNDPVLKVPILPFRQKMQMLEKLGVDTIFLIDYNLTFGSQSPEDYVDNYLAKLGASVVVAGFDHTYGSLKDKADMKHLPRYANGRFEVYTVRECSDYFGKISSTRIRRLLSEGDLQAVNELLGYQFQTVGFVVHGNQIGRRIGFPTANQALEEKQLLPKSGVYAVRTKIVTGPLAGRSFNGMASIGRNETFGSDNPITIEINLFDFSADVYDEEIIVYWISFLREQVKYANAEALIDQLKQDRIDSLDLLKEIPKSKNYS = not soluble
• MSLDNRFPVCINTMKLTMPKLEVYYPSIGGISDINVQKKMNNTILNLVYQMIEDQGYYKNTETTITGYFEIKNNQRGILSLTLSNYAFSGGAHGMTIMKSLTFNVETGEEYSLSQLFKPGSNYVKVLSELIKVQIRERDIPVIEEFCAIKPNQDFYIADKILVLYFQLYELVPYAYGFPQFPISVYTIQDIINEDGPLGRMLYEGHHHHHH = soluble
• MSLNMLVINGTPRKHGRTRIAASYIAALYHTDLIDLSEFVLPVFNGEAEQSELLKVQELKQRVTKADAIVLLSPEYHSGMSGALKNALDFLSSEQFKYKPVALLAVAGGGKGGINALNNMRTVMRGVYANVIPKQLVLDPVHIDVENATVAENIKESIKELVEELSMFAKAGNPGVEGGSHHHHHH = soluble
• MAHHHHHHMKNALFVNENMTILKIFYKDKLYMIKNKICGYQHDINENLVNNPHLLFLGRQEAWILILKCKEEAILQNCITATRYEEIRESEIERHDCVLGSLRK = not soluble
• MAHHHHHHMGTLEAQTQGPGSMSVMPDHWIKERALKDGMISPFVDHKEGTGVLSYGLSSYGYDARLDNKFKIFANTHSVVVDPKNFSQDSFVDREGDFCIIPPNSFMLAKTVEYFNIPRDVMVVCVGKSTYARCGIVVNVTPLEPGWSGYVTLEFSNTSPLPVKVYAFEGACQFLFFSGKERCSKSYDEAGGKYMGQSDVTLPIIS = soluble
• MSRSLLTNETSELDLLDQRPFEQTDFDILKSYEAVVDGLAMLIGSHCEIVLHSLQDLKCSAIRIANGEHTGRKIGSPITDLALRMLHDMTGADSSVSKCYFTRAKSGVLMKSLTIAIRNREQRVIGLLCINMNLDVPFSQIMNTFIPPETPEVGSAVNFASSVEDLVTQTLEFTIEEVNADRNVSNNAKNRQIVLNLYEKGIFDIKDAINQVADRLNISKHTVYLYIRQFKSGDFQGQDK = not soluble
• MSVEIESIEHELEESIASLRQAGVRITPQRQAILRYLISSHTHPTADEIYQALSPDFPNISVATIYNNLRVFKDIGIVKELTYGDSSSRFDFNTHNHYHIICEQCGKIVDFQYPQLNEIERLAQHMTDFDVTHHRMEIYGVCKECQDK = not soluble

---

Experiment: soluble on expression in E. coli; label from the status in PepcDB or PDB records
MEASURED PARAMETER: soluble on expression in E. coli

* SATGTPESQARFGQSVKGLLTEKVTTCGTDVIALTKQVLKGSRSSELLGQAARNMVLQEDAILHSEDSLRKMAIITTHLQYQQEAIQKNVEQSSDLQDQLNHLLK | soluble
* MSLVPAFPHSTSPTTTVIAVPPALSLPVIETDFPRQLHPYWPRLQEKTRSWLLEKRLMPADKVEEYADGLCYTDLMAGYYIGAPDEVLQAIADYSAWFFVWDDRHDRDVIHRRATAWRQLRFQLHTALDSPRDHLHHRDPLVAGFADSMVRLYSFLGKKWNARFACHFHAVIEAYDREFHNRTRGIVPTVEEYLELRRLTFAHRIWTDLLEPSARHEIPAGVREHPGYRRAALLSQEFAAWYNDLCSLPKEIAGDEVHNLGISLIHHEGLTLEEAVTEVRRRVEECIAEFLVAEKEAVHLADGLADGTRAGHELSDAVKACVANMRNWFSTVYWFHHESGRYRVDSWDDRSTPPYVNNEAAGEGHHHHHH | soluble

---

Assay: soluble on expression in E. coli; label from the status in PepcDB or PDB records
MEASURED PARAMETER: soluble on expression in E. coli

- MPPKQQLSKAAKAAAALAGGKKSKKKWSKKSMKDRAQHAVILDQEKYDRILKEVPTYRYVSVSVLVDRLKIGGSLARIALRHLEKEGIIKPISKHSKQAIYTRATASE: soluble
- MAITQKRPVYLQLVDRIKNEVATDVLSANDQLPSVRETALQEKINPNTVAKAYKELEAQKVIRTIPGKGTFITGNTASVKNSNQNRLLADLSQVIAELIKSGVKGERIKKIVNDILGGKNAEN: soluble
- MSRLGYVMTKASAKNFKVYINGSARGYRNIIINGAKSWNPSPYLNTVTMGNDVKPNFTVSSSNTNKGSVLAVCNTTYYKSNKLIVKNEITLYKGFRSLSNNHKIETVAHEFGHGFGLGHVKTRNAIMLDKGFINKTKPQKDDFNGIKALYKLEHHHHHH: soluble
- MYYVGIMSGTSLDGIDAVLVDFSGPSFSLLHTCYIPYDQSLRAALLGLNQAGENELHRAAILSNQLSGWYAQAVGRLLEKSGIDPGEIIAVGCHGQTIRHCPQPENGYSIQLVNGALLAELTGMTVVTDFRSRDIAAGGQGAPLVPAFHHEMFAHRDIHRLIINIGGITNITSLPVSGGVNGFDCGPGNMLMDAWCLKHTGMTYDHNGSWAESGRVINPLLENLLNFPYFSLPPPKSTGREMFSLDWLQPCLRGDEATQDVQSTLLQLTVRTITDSVETYYPAVRELYLCGGGAHNGTLVTRLQQQLPGRRINLTDALGIEADWVEACAFAWLARQSIERAPGNLPAVTGATGSRTLGAIYPA: not soluble
- MIGVGKMKQYSNVLDKPLSKGKQEVSLTAFAFLFSELVQYNQTQVDNIAELERRLEDAGYAVGSRVLELLCNREKGNRRETRLLGILSFVHSTVWKVLFGKVADSLEKGTEHEDEYMISEKELLVNRFISIPKDMGTFNCGAFVAGIVKGVLDNAGFPAVVTAHFVPIEGQQRPRTTILIKFADEVLKREARLSQ: soluble
- MGSDKIHHHHHHMWFAVLSSNEVRRKPVGVRRLGRDLVFWRDSLGKVYALEDFCVHRRARLSAGKVINDRIQCPFHGFEYDGNGRVRLIPALGKNYKVPDRFRVNSYPVYEKNNIIWLWSGEGEPEKEPKFFDDIDEDFAYAEFRELWNVPFPRAVENQLDVMHLPFVHRTTIGRGNRTLVHGPVVKWIDEDSFIFYVFNEVDRGQRVKRPEELSGEESRVYLEFIFPNLWQNHISEGTRVVAFFVPVDRQKTMIYLRFYVKMTGLKPVDSIIARLSMPLNRIILHQDRRVVETQERDIRKDVLVQGDLPIMEFRKRLYKEKKLIDFLFGGGQ: not soluble
- MSLSELIFYTNPMSRGRIARWMLEEVGIPYKTEILGFETSMKSPAYRLINPMAKVPAIKHGDTIVTEAAAICAYLADAFPGANLAPTPKARGLYYRWMFFAAGPLEMAASMKAMGFEVPKEKLRMAGCGSYADVMNTLERAVSENRFIAGDLFTAADVYVGAHVGWGLHFGTIEKRPAFTDYMAHLTDRPAFKRAAQLDEEAAKELQAAGEGHHHHHH: soluble

---

Assay: soluble on expression in E. coli; label from the status in PepcDB or PDB records
MEASURED PARAMETER: soluble on expression in E. coli

- MKIFFITSNPGKVREVANFLGTFGIEIVQLKHEYPEIQAEKLEDVVDFGISWLKGKVPQPFMIEDSGLFIESLKGFPGVYSSYVYRTIGLEGILKLMEGAEDRRAYFKSVIGFYIDGKAYKFSGVTWGRISNEKRGTHGFGYDPIFIPEGSEKTFAEMTIEEKNALSHRGKALKAFFEWLKVNLKY: soluble
- MSLRIAIVGAGALGLYYGALLQRSGEDVHFLLRRDYEAIAGNGLKVFSINGDFTLPHVKGYRAPEEIGPMDLVLVGLKTFANSRYEELIRPLVEEGTQILTLQNGLGNEEALATLFGAERIIGGVAFLCSNRGEPGEVHHLGAGRIILGEFLPRDTGRIEELAAMFRQAGVDCRTTDDLKRARWEKLVWNIPFNGLCALLQQPVNLILARDVSRKLVRGIMLEVIAGANAQGLATFIADGYVDDMLEFTDAMGEYKPSMEIDREEGRPLEIAAIFRTPLAYGAREGIAMPRVEMLATLLEQATGEGHHHHHH: soluble
- MNEDIDMLIIANDLKQRGRKSIISGKFIFINMANEYEYVVYPVNENKTLSVKELEEFVDFSNRIKKKGVIAIVDKYGDVTYYLLSEINLGKK: soluble
- SSFFGFGQTAEIDIVLNDAETRKKVEHKTEDGKKDKYFLFYDGETVSGKVNVTLKTPGKRLEHYGIKIEFVGQIELYYDRGNHHEFVSLVKDLARPGELSQSQTFDFELTHVEKPYESYTGQNVKLRYFLRATISRRLNDISKEMDIVVQTLCTYPEINSSIKMEVGIEDCLHIEFEYNKSKYHLRDVIVGKIYFLLVRIKIKHMEIDIIKRETTGTGPSVYHENDTIAKYEIMDGAPVRGESIPIRLFLAGYEMTPTMRDINKKFSVRYYLNLVLIDEEERRYFKQQEITLWRKGDIVRRSMSQQATIAAQRYEGSNPEPTSAQAKEETD: soluble
- FTPVTKAAVINTFDGVADYLIRYKRLPNDYITKSQASALGWVASKGDLAEVAPGKSIGGDVFSNREGRLPSAGSRTWREADINYVSGFRNADRLVYSSDWLIYKTTDHYATFTRIR: soluble
- METMCEVKVITGTSAAAEAAKLADVDVIAAYPITPQTTCVEKLAEFVANGELDAEYIKVESEHSAMSACIGAAATGARTFTATASQGLALMHEMLFIASGMRLPIVMMVANRALSAPINIWNDHQDSIAERDSGWIQIYVEDNQETLDSIIQAYKIAENEDVLLPVMVCLDGFILTHTVEPVTIPKAERVREFLGVYEPKHAYLDPDRPITQGPVGVPDCYMETRKQIEEAMERAKKVIRDVNEEFAEWFKRKY: not soluble
- MSPWQHYQKDLTRDGFSHDPAQEIAVKALQRVYEDLTAAEEPNSLFGKLFTSFGLTSAPAPTKGLYLWGGVGRGKTYLMDTFFDTLPGNQKLRAHFHRFMHQLHLDLDALKGTRDPLLVIAKQMAAKYRVICFDEFFVSDITDAMLLGTLFQALFKEGVVLVATSNIIPDDLYKNGLQRARFLPAIALINQHCEVLNVDSGIDYRLRTLEQAEIYHHPLDEQADTNLLRYFGQLAPEAEISTEAIEIEGRAISIRQQAQGVLLADFRALCDGPRSQRDYMELARIYHTVLVSGIEQMGAFLTGDDIARRFLAMVDEFYERNVKLIVSAQVPLEDIYADGLLSFEFRRCRSRLIEMQSHDYLKSEHLPLEHHHHHH: not soluble
- MHHHHHHSSGRENLYFQGASEALKVVARCRPLSRKEEAAGHEQILTMDVKLGQVTLRNPRAAPGELPKTFTFDAVYDASSKQADLYDETVRPLIDSVLQGFNGTVFAYGQTGTGKTYTMQGTWVEPELRGVIPNAFEHIFTHISRSQNQQYLVRASYLEIYQEEIRDLLSKEPGKRLELKENPETGVYIKDLSSFVTKNVKEIEHVMNLGNQTRAVGSTHMNEVSSRSHAIFIITVECSERGSDGQDHIRVGKLNLVDLAGSERQNKAGPNTAGGAATPSSGGGGGGGGSGGGAGGERPKEASKINLSLSALGNVIAALAGNRSTHIPYRDSKLTRLLQDSLGGNAKTIMVATLGPASHSYDESLSTLRFANRAKNIKNKPRVNEDPKDTLLREF: soluble
- SENDSIELDDVANLMFYGEGQIGTNKQPFMFIFDTGSANLWVPSVNCDSIGCSTKHLYDASASKSYEKDGTKVEISYGSGTVRGYFSKDVISLGDLSLPYKFIEVTDADDLEPIYSGSEFDGILGLGWKDLSIGSIDPVVVELKKQNKIDNALFTFYLPVHDKHVGYLTIGGIESDFYEGPLTYEKLNHDLYWQIDLDIHFGKYVMQKANAVVDSGTSTITAPTSFLNKFFRDMNVIKVPFLPLYVTTCDNDDLPTLEFHSRNNKYTLEPEFYMDPLSDIDPALCMLYILPVDIDDNTFILGDPFMRKYFTVFDYEKESVGFAVAKNL: soluble
- MAETQFTRFPFQPFIIEAIKTLRFYKPTEIQERIIPGALRGESMVGQSQTGTGKTHAYLLPIMEKIKPERAEVQAVITAPTRELATQIYHETLKITKFCPKDRMIVARCLIGGTDKQKALEKLNVQPHIVIGTPGRINDFIREQALDVHTAHILVVDEADLMLDMGFITDVDQIAARMPKDLQMLVFSATIPEKLKPFLKKYMENPTFVHVLEHHHHHH: soluble
- MGSDKIHHHHHHQQKSADVVENQFTTIKEVPITPVKDQANSGTCWSYSALGFLESEILRMGKPEVDLAEMHSVAQSYKDKGEKYVRMHGKLNFGQGGSFYDVLYVVKHYGVVPQSVMQGLNYGTKKNAHSELADGALAYLKAIVTNPNGKLTPAWKKAYDGIIDSYLGTCPETFTYEGKTYTPKSFAQYLGLNVDDYVSLTSYTHHPFYTQFALEIEDNWRGSLSYNMPINELMETMEYAINNGYSIAWGSDVSEVGFTRDGIGVLADVEGIEAKGSDQDRWVGLSRAEKQAEIIRTVNSADCPEINPTQEFRQKGYDEYSLTDDHGMVIYGIAKNQNGRKFFMVKNSWGETGKYKGIWYASYNFVAGRTMNIIVHKKAIPAAIAKKLGIRQ: not soluble
